TARGET: T1, Boi2, P39969
T1 sequence (P39969 32-116, looked up): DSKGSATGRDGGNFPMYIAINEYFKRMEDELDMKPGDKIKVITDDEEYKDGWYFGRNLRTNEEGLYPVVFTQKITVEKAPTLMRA
RUN_DESCRIPTION: SPOT array
CONDITION_DETAILS: median of control spots 1161

BINDER | SPOT intensity
NLDRSKISLPDFDDE | 2
SHRLWLYAAPKRPKT | 0
NNNKMRPHLPPLSSG | 0
RPVPPPPPMRTTTEG | 0
DRIRMFIRFPKFLLE | 3
HRRRRVFSIPSLKSI | 4
FYNRTAFQLPGDARV | 0

Origin of the recorded values: paper PMC2756588
